systemName: T1, human C1s (human, UniProt P09871 16-688)
T1 construct: Analyte in the Biacore assays; also called hC1s; serum-derived human C1s (CompTech)
T1 sequence: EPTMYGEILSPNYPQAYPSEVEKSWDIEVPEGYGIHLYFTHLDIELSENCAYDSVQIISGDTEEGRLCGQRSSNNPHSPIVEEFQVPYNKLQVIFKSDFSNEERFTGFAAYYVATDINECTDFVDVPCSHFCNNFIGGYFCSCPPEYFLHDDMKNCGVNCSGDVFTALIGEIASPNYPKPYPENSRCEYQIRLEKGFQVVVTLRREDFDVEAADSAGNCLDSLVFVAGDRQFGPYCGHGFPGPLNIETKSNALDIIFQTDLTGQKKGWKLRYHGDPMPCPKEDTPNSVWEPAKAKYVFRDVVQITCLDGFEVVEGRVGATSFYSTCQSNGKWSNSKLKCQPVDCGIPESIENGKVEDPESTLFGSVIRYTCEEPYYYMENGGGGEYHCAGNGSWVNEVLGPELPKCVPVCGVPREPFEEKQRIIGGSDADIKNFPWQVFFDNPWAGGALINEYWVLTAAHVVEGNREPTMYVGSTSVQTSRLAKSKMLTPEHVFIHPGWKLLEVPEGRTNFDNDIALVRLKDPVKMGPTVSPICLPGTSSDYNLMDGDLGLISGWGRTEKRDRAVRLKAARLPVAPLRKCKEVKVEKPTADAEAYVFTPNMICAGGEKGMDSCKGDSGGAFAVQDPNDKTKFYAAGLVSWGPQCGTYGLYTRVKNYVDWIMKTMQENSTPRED
assaySummary: SPR; KD at pH 5.8 (3 uM Ca) over KD at pH 7.4 (1.2 mM Ca)
Would you mind telling me the reported KD 5(-)/7(+) of each entry?
// no unit, no text: just the number

(Q) Suppose we examine the binder C1_IPN92H0253-SG4GK/IPN93L0024-SK1 (antibody, human IgG4 S228P, kappa, name in Kabat numbering, V domains shown, Substitutions from IPN009VH2, Kabat numbering; also called IPN92H0253/IPN93L0024) VH: EVMLVESGGGLVKPGGSLRLSCAASGFTFSNYAMSWVRQAPGKGLEWVATISSGGSHTYYLDSVKGRFTISRDNSKDTLYLQMNSLRAEDTALYYCARLFTGHAMKYWGQGTLVTVSS VL: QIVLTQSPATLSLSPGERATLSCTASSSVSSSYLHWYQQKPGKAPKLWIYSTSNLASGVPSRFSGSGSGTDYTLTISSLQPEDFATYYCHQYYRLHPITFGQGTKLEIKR ; what KD 5(-)/7(+) value has been reported?
(A) 210

(Q) Give the measured KD 5(-)/7(+) of C1_IPN92H0194-SG4GK/IPN93L0024-SK1 (antibody, human IgG4 S228P, kappa, name in Kabat numbering, V domains shown, Substitutions from IPN009VH2, Kabat numbering; also called IPN92H0194/IPN93L0024) VH: EVMLVESGGGLVKPGGSLRLSCAASGFTFSNYAMSWVRQAPGKGLEWVATISSGGSHTYYLDSVKERFTISRDNSKDTLYLQMNSLRAEDTALYYCARLFTGHAMDYWGQGTLVTVSS VL: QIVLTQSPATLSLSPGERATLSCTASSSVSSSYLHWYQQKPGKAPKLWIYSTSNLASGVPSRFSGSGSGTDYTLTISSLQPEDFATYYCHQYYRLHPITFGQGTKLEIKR .
(A) 7.29

(Q) Recorded KD 5(-)/7(+) of C1_IPN92H0160-SG4GK/IPN93L0024-SK1 (antibody, human IgG4 S228P, kappa, name in Kabat numbering, V domains shown, Substitutions from IPN009VH2, Kabat numbering; also called IPN92H0160/IPN93L0024) VH: EVMLVESGGGLVKPGGSLRLSCAASGFTFSNYAMSWVRQAPGKGLEWVATISSGGSHTYELDSVKGRFTISRDNSKDTLYLQMNSLRAEDTALYYCARLFTGHAMDYWGQGTLVTVSS VL: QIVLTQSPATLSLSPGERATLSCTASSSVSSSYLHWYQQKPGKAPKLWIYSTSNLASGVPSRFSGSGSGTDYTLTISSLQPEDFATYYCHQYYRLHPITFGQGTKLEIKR , please.
(A) 4.82
